For each record, write down the corresponding self-cleavage kobs at 40 uM GlcN6P.
B1: glmS ribozyme (parent)
chain: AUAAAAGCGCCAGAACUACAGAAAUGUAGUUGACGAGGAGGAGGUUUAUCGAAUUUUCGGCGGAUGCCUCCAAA

# Variants of: B1
# Measurement Notes: self-cleavage kobs at 40 uM GlcN6P; higher = faster cleavage; RNA array
# Condition: with glucosamine-6-phosphate
Fewer inactive variants are shown than the library holds.

Task: Please report the measured self-cleavage kobs at 40 uM GlcN6P for G7C C10A G29U A64C
Output: < 1e-05 s⁻¹

Task: Quick one: give measured self-cleavage kobs at 40 uM GlcN6P for C8A U56A
Output: < 1e-05 s⁻¹

Task: Please look at this variant and report its self-cleavage kobs at 40 uM GlcN6P: A52C
Output: < 1e-05 s⁻¹

Task: Item A39C U54C : provide self-cleavage kobs at 40 uM GlcN6P
Output: 0.000105 s⁻¹

Task: For the variant C11U U45G U55A C67G C68A , report self-cleavage kobs at 40 uM GlcN6P.
Output: 6.74e-05 s⁻¹

Task: Specify self-cleavage kobs at 40 uM GlcN6P for C34G U47G C68G and stop.
Output: 0.000102 s⁻¹

Task: Indicate its recorded self-cleavage kobs at 40 uM GlcN6P; the variant in question is A6U G13C G63U A64G
Output: < 1e-05 s⁻¹

Task: Supply self-cleavage kobs at 40 uM GlcN6P value. Item: C10G U30A
Output: < 1e-05 s⁻¹

Task: Write down self-cleavage kobs at 40 uM GlcN6P measured for item A42G U56G
Output: 0.000474 s⁻¹

Task: For the variant C34G A64C U65A , give its measured self-cleavage kobs at 40 uM GlcN6P value.
Output: < 1e-05 s⁻¹

Task: Answer with reported self-cleavage kobs at 40 uM GlcN6P of U30G G51A
Output: < 1e-05 s⁻¹

Task: Identify measured self-cleavage kobs at 40 uM GlcN6P associated with A14G G63U
Output: < 1e-05 s⁻¹

Task: Quick one: give measured self-cleavage kobs at 40 uM GlcN6P for A6C C61A
Output: < 1e-05 s⁻¹

Task: Give self-cleavage kobs at 40 uM GlcN6P for the following variant: U47G G51A
Output: < 1e-05 s⁻¹

Task: Identify self-cleavage kobs at 40 uM GlcN6P associated with the variant U31A U56C
Output: 6.48e-05 s⁻¹

Task: Dear colleague, please send me the reported self-cleavage kobs at 40 uM GlcN6P for A14G A33U when you can.
Output: < 1e-05 s⁻¹

Task: Specify measured self-cleavage kobs at 40 uM GlcN6P for C16G A48C .
Output: < 1e-05 s⁻¹

Task: Let me know recorded self-cleavage kobs at 40 uM GlcN6P for A52C G60A G66A , thanks.
Output: < 1e-05 s⁻¹

Task: Tell me its self-cleavage kobs at 40 uM GlcN6P given C11A U45C as the entry.
Output: < 1e-05 s⁻¹

Task: Return reported self-cleavage kobs at 40 uM GlcN6P. Input variant: G32C U45C U69A
Output: < 1e-05 s⁻¹

Task: State, in one line, measured self-cleavage kobs at 40 uM GlcN6P of U45G A64G
Output: 0.000169 s⁻¹

Task: Item G37C U45C : provide self-cleavage kobs at 40 uM GlcN6P
Output: < 1e-05 s⁻¹
